Target: T1, pm1 (sulfated tyrosine(s) among Y15, Y16, Y17; which ones is not told (the underlining of Table 1 is lost in the text))
T1 construct: also called sulfated CCR8 N-terminal peptide pm1
T1 sequence (peptide, as listed by the source): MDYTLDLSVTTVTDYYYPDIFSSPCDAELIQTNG
Test: ELISA on coated peptide [cont.]
measured-parameter: binding result

anti-CCR8 mAb 1-18 (antibody, V domains shown, Murine hybridoma mAb) VH: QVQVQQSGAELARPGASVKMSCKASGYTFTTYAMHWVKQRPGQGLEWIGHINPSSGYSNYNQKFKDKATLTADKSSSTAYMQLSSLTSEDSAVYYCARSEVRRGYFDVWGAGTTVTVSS VL: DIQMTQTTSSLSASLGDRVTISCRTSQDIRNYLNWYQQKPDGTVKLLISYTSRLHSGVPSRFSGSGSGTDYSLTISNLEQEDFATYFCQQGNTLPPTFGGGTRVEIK ... binds
anti-CCR8 mAb 1-23 (antibody, human IgG1, kappa, V domains shown, Humanized mAb, human IgG1 / kappa) VH: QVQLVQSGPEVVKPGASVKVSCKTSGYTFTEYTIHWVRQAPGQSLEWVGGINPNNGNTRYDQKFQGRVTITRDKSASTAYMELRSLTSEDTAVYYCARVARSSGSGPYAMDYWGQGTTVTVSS VL: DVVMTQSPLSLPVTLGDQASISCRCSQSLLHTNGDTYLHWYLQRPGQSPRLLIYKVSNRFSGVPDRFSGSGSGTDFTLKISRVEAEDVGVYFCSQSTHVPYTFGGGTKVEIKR ... binds
